// reported TGI for each item listed
- System: A549 NSCLC
- assay.comment: NCI tumour cell line growth inhibition, 48 h
observed.property: TGI

compound	test.value
O=C(/C=C\c1ccc([N+](=O)[O-])cc1)c1ccccc(=O)c1O	11.9 µM
COC(=O)c1ccc(CN2C(=O)C(Cl)=C(Nc3cccc(Cl)c3C)C2=O)cc1	> 100 µM
O=C(c1ccc(Cl)cc1)N(C(=S)N1CCN(c2ccccn2)CC1)C1CCCCC1	> 100 µM
Cc1ccc(-c2nc(N/N=C/c3ccc(O)cc3)c3ccccc3n2)cc1	> 100 µM
CSc1ccn(C2CC(F)C(CO)O2)c(=O)n1 (stereo unspecified)	> 100 µM
CCc1ccc(CCC(=O)Nc2ncc(Cc3ccc(Cl)cc3)s2)o1	> 100 µM

====

We begin with a simple list: items and their reported TGI.
- Tested on: HOP-62 NSCLC
- assay.comment: NCI tumour cell line growth inhibition, 48 h

compound	TGI
CCOC(=O)c1cc2c(cc1Cl)SC(=Nc1ccccc1)N(S(=O)(=O)c1ccc(Cl)cc1)S2(=O)=O	32.6 µM
COC(=O)C1=C(O)[C@H](C(=O)OC)C2(O)C(C(=O)OC)[C@H](c3ccc(OC(=O)C(C)c4ccc(CC(C)C)cc4)cc3)C[C@@H]1[C@@H]2C(=O)OC (stereo not given in full)	> 50 µM
CC(C)(C)OC(=O)CN1CCNCCN(CC(=O)OC(C)(C)C)CCNCC1	> 100 µM
Nc1nc([Se])c2ncn(C3OC(CO)C(O)C3O)c2n1 (stereo not given)	> 100 µM
O=C(c1ccccc1)C1S(=O)(=O)OCCOS1(=O)=O	> 100 µM

====

Each entry below carries its recorded log10(TGI).
- Tested on: NCI-H460 lung
- assay.comment: NCI tumour cell line growth inhibition, 48 h
observed.property: log10(TGI) (log10 of the value in µM)

compound	log10(TGI)
CCOC(=O)c1cc2c(cc1Cl)SC(=Nc1ccccc1)N(S(=O)(=O)c1ccc(Cl)cc1)S2(=O)=O	1.67
Cc1cc(=O)n2nc(CCl)sc2n1	1.47
CCOCCCn1c2c(c3c(O)cccc31)C(=O)c1ccccc1-2	1.81
C=C1CC(Cn2ccc(=O)[nH]c2=O)(c2ccc(Cl)cc2)OC1=O (stereo not given)	1.42
CC(C)=CCc1[nH]c2ccccc2c1C1=C(O)C(=O)C(c2c(CC=C(C)C)[nH]c3ccccc23)=C(O)C1=O	0.59

====

- Test system: SN12C renal
- assay.comment: NCI tumour cell line growth inhibition, 48 h

compound	experimental.target	value.comparator	TGI [µM]
COc1ccc(CN2c3ccccc3Sc3ccccc32)c(C(F)(F)F)c1	SN12C renal	>	100
Cc1ccc(-c2nc(N/N=C/c3ccc(O)cc3)c3ccccc3n2)cc1	SN12C renal	=	25.4
Nc1ncn2c(n1)nc1ccccc12	SN12C renal	>	100
C/C=C1\CN(C(=O)OC(C)(C)C)C1C(=O)OC(C)(C)C (stereo not given)	SN12C renal	>	100
COc1cc(Nc2ncc(-c3ccccc3)o2)cc(OC)c1	SN12C renal	>	25
CN(C)C(=N/O)/C(=N\O)N(C)C	SN12C renal	>	100
O=C1N2Cc3c4ccc5c3CN3C(=O)N6Cc7c(ccc(c7CN1C6(c1ccccc1)C23c1ccccc1)OCCOCCNCCOCCO4)OCCOCCNCCOCCO5 (stereo not given)	SN12C renal	=	89.1
COC(=O)c1ccc(C)cc1CC1Cc2ccc(C)cc2C1=O (stereo not given)	SN12C renal	=	32.7
C=C1C(=O)O[C@@H]2[C@H](O)[C@@H](C)[C@@H]3C=CC(=O)[C@@]3(C)[C@@H](OC(=O)/C(C)=C/C)[C@H]12	SN12C renal	=	2.52
CCOC(=O)C(NC(=O)c1ccccc1)(N1CCN(c2cc3c(cc2F)c(=O)c(C(=O)O)cn3CC)CC1)C(F)(F)F (stereo not given)	SN12C renal	>	100
